target: Nurr1 (Mus musculus); assay: GAL-mNurr1 luciferase reporter transfection assay in CV-1 cells; conditions: GAL-mNurr1, luciferase corrected by β-galactosidase, 24 hours
Sequence (Q06219 360-598 limits assumed): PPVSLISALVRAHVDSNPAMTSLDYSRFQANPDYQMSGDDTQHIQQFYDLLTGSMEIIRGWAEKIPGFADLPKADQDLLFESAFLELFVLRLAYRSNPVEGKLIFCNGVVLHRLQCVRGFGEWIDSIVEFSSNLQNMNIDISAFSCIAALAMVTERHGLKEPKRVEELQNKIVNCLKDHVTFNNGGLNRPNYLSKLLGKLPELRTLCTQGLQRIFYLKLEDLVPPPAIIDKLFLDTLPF
parameterMeasured: EC50 (nM)
# value in nM; strip the unit string

- smilesStr: "CC(C)=CCC/C(C)=C/[C@@H]1CC(C)=C[C@]2(C=C(CF)[C@H]3CC(=O)C(C)=C[C@H]3O2)O1"
  parameterMeasured: "EC50"
  readoutValue: 32
- smilesStr: "CC(C)=CCC/C(C)=C/[C@@H]1CC(C)=C[C@]2(C=C(C=O)[C@H]3CC(=O)C(C)=C[C@H]3O2)O1"
  parameterMeasured: "EC50"
  readoutValue: 7
- smilesStr: "C#CCOCC1=C[C@]2(C=C(C)C[C@@H](/C=C(\\C)CCC=C(C)C)O2)O[C@@H]2C=C(C)C(=O)C[C@H]12"
  parameterMeasured: "EC50"
  readoutValue: 25

Now, please, on to the next molecule.
Answer with the recorded EC50 of CC(C)=CCC/C(C)=C/[C@@H]1CC(C)=C[C@]2(C=C(COS(=O)(=O)c3ccc(C)cc3)[C@H]3CC(=O)C(C)=C[C@H]3O2)O1 only.
28
